Test system: NCI-H522 lung
Assay: NCI-60 one-dose screen, 48 h (100 = growth as untreated, 0 = no growth, -100 = all killed)
Settings: 10 µM unless noted
About 83,000 compounds went through this panel and 20% of them were active in at least one assay; those are over-represented in the sample as a whole.
Mark Y for reported growth of 30% or greater; mark N for anything smaller.

# count of solved cases: 3
Hi, just wondering whether `O=C(CN1CCN(c2cc3c(cc2F)c(=O)c(C(=O)O)cn3C2CC2)CC1)N/N=C/c1ccncc1` shows growth of 30% or higher. Y

Decide: is the reported value of growth for `COC(=O)c1ccc2c(c1)c1c(C)c3ccncc3c(C)c1n2C` equal to or greater than 30%? N

Decide: growth of `Cc1c2ccccc2nc2c1ccc1cccnc12` >= 30%? Y

Next:
Say whether `O=C1CCCc2nc3sc4c(=O)n(-c5ccccc5Cl)nnc4c3cc21` shows growth of 30% or more. Y

Decide: is the reported value of growth for `O=C(NCc1ccccc1O)c1cccc2ccccc12` equal to or greater than 30%? Y

hey, is growth for this one >= 30%? `Cc1c2cnccc2c(C)c2c1c1cc(C3OCCCO3)ccc1n2C` N

API: above_or_equal(metric=growth, cutoff=30%) for item `COc1cc(/C=C\c2cc(/C=C\c3ccc(O)c(OC)c3)n(C(=O)CNc3ccc(Cl)cc3)n2)ccc1O` N

Given `COc1cccc2c(N=NC(=O)c3ccc(S(N)(=O)=O)cc3)c(O)[nH]c12` , state whether its growth is at least 30%. Y

Is it the case that `N=C(N)c1ccc(-c2ccc(-c3ccc(Cl)cc3Cl)s2)cc1F` has growth reaching or exceeding 30%? N

---

System: HOP-62 NSCLC
Assay: NCI-60 one-dose screen, 48 h (100 = growth as untreated, 0 = no growth, -100 = all killed)
Conditions: 10 µM unless noted
Compounds without any hit were thinned out: in the full panel of roughly 83,000, 20% have a hit. Calls of active or inactive are those of the source. Rule for the calls: active = growth percent below 10; inactive = the rest.
Each entry below carries its recorded growth.

Check out these entries, answers already filled in.
Which growth value belongs to `CCc1ccc(CCC(=O)Nc2ncc(Cc3ccc(Cl)cc3)s2)o1` ? 30.9% (inactive)

I'd like to know its growth. The compound in question is `Cn1c(O)c(C(/C=C/c2ccccc2)=Nc2ccccc2N)c(=O)n(C)c1=O` 105% (inactive)

Given `CCCCNC1=C(OCC)C(=O)c2ccccc2C1=O` , state its recorded growth. 125% (inactive)

Form field: reported growth of `COc1ccc(/C=C/C(=O)c2cc3c(N)c(C(=O)Nc4ccccc4C)sc3nc2C)cc1` 32.6% (inactive)

Next item in the queue.
For the compound shown here, `COCCCOc1cc(C[C@@H](C[C@H](N)[C@@H](O)C[C@H](C(=O)NCC(C)(C)C(N)=O)C(C)C)C(C)C)ccc1OC` , give the reported growth. 114% (inactive)

---

Tested on: IGROV1 ovarian
Experiment: NCI-60 one-dose screen, 48 h
Conditions: 10 µM unless noted
This is part of a sample that, as a whole, favours compounds with a hit. Of some 83,000 tested, about 20% had one in any assay. Active and inactive are the calls of the source. The calls were made as follows: active = growth percent below 10; inactive = the rest.
Form entry, call: pick from yes (1) = active, no (0) = inactive

Outcome logged for `C#CCn1cnc2c(Nc3cccc(NC(=O)CCl)c3)ncnc21` in this assay: yes (1)

Further cases:
Assay result, entry `Nc1c(C(=O)O)cc(Cl)cc1[N+](=O)[O-]` — outcome? no (0)

Tell me the assay call for `NC(=O)c1ccc(NC(=O)c2oc3ccccc3c2-c2cnn(-c3ccccc3)c2)cc1` please. no (0)

Dear colleague, could you share the recorded outcome for `O=c1[nH]c(-c2ccc(Cl)cc2)cn1-c1ccc(-n2cc(-c3ccc(Cl)cc3)[nH]c2=O)cc1` when you have a moment? no (0)

Give the logged outcome of this assay for the following compound: `OC(c1ccccc1)(c1ccccc1)c1ccccc1-c1ccccc1` no (0)

---

System: CCRF-CEM leukemia
Assay: NCI-60 one-dose screen, 48 h (100 = growth as untreated, 0 = no growth, -100 = all killed)
Conditions: 10 µM unless noted
The panel holds about 83,000 compounds, 20% with a hit somewhere; the sample as a whole holds those more often.
Field: class. Source value: growth. Ranges: lowest (below 10%), middle (10% to below 50%), highest (50% or more)

Dear colleague, I would appreciate it if you could identify the bin for O=C1CCC(C(=O)NN(c2ccccc2)c2ccccc2)N1 (stereo not drawn) and reply at your convenience. middle

Where would `CCN(CC)CCNC(=O)c1ccc(-c2nc3ccc4[nH]ncc4c3c3c2CCCC3)cc1` land among the classes by reported growth? middle

---
Pick a category. Item: `N=C(N)c1ccc(-c2ccc(-c3ccc(Cl)cc3)o2)o1` lowest

Textbook exercise: identify the category of the compound given here, `O=C(N/N=C/c1ccc(Cl)cc1Cl)c1ccc2nc(-c3ccc(Cl)cc3)[nH]c2c1` , according to its measured value. middle

Which bin should I file `COP(=O)(OC)c1nnn(-c2cccc([N+](=O)[O-])c2)c1C` under? highest

---

System: DU-145 prostate
Assay: NCI-60 one-dose screen, 48 h (100 = growth as untreated, 0 = no growth, -100 = all killed)
Details: 10 µM unless noted
About 83,000 compounds went through this panel and 20% of them were active in at least one assay; those are over-represented in the sample as a whole.
Binary label based on growth with cut-off 90%: below gives fulfilled, not below gives not fulfilled.

Decide: growth of O=C1OCC2=C1C(c1cccc(C(F)(F)F)c1)c1cc3c(cc1N2CCO)OCO3 (stereo not drawn) strictly below 90%? fulfilled

Quick check: does `Cn1cc(C(=O)c2nc(-c3c[nH]c4ccc(Br)cc34)no2)c2cc(Br)ccc21` have growth under 90%? fulfilled

Consider `C[N+](C)(C/C=C/c1ccccc1)Cc1ccccc1` . Does its growth lie strictly below 90%? not fulfilled

Quick check: growth of COc1cccc(NC(=O)c2cccc(C3CCc4c(cc(OC)c(OC)c4OC)O3)c2)c1 (stereo not drawn) under 90%? fulfilled

Regarding CO[C@H](C(=O)[C@@H](O)[C@@H](C)O)[C@@H]1Cc2cc3cc(O[C@H]4C[C@@H](O[C@H]5C[C@@H](O)[C@H](O)C(C)O5)[C@H](O)C(C)O4)c(C)c(O)c3c(O)c2C(=O)[C@H]1O[C@H]1C[C@@H](O[C@H]2C[C@@H](O[C@H]3C[C@@H](OC)[C@H](O)C(C)O3)[C@@H](O)C(C)O2)C(O)(O)C(C)O1 (stereo partly drawn) , kindly confirm whether its growth is beneath 90%. fulfilled

Now take the following compound into account.
Say whether its growth is strictly beneath 90%. Entry: `CCC(CC)(N(CC(=O)O)CC(=O)O)C(CC)(CC)N(CC(=O)O)CC(=O)O` not fulfilled

---

Test system: HOP-62 NSCLC
Test: NCI-60 one-dose screen, 48 h (100 = growth as untreated, 0 = no growth, -100 = all killed)
Details: 10 µM unless noted
Compounds without any hit were thinned out: in the full panel of roughly 83,000, 20% have a hit. Activity calls are given as the source filed them. Rule for the calls: active = growth percent below 10; inactive = the rest.
quantity.kind: growth

Example compounds with recorded growth:
growth for `COc1ccc2nc3ccccc3c(NCc3ccccc3)c2c1` ? 33.6% (inactive)

# query: growth of entry `Cc1ccc2nc(Cl)c(Cn3nnnc3SCc3ccccc3)cc2c1` 86% (inactive)

Fill in: growth of `CN1C(=O)/C(=C/c2ccc(C(=O)Nc3ncc(Cc4ccc(F)cc4)s3)cc2)SC1=S` is ___ 44.9% (inactive)

// returns reported growth for input `O=C1Nc2ccc(F)cc2/C1=N/c1nnc(Sc2ccccc2)s1` 94.7% (inactive)

State the recorded growth for this entry: `CCOC(=O)N1CCN(S(=O)(=O)c2oc(-c3ccc(Cl)cc3)nc2C#N)CC1` 96% (inactive)

Further cases:
Any idea what growth was measured for `O=C1NC(=O)c2c1c1c3ccccc3[nH]c1c1oc3ccc(F)cc3c21` ? 64.8% (inactive)

---

System: DU-145 prostate
Assay: NCI-60 one-dose screen, 48 h (100 = growth as untreated, 0 = no growth, -100 = all killed)
Conditions: 10 µM unless noted
The panel holds about 83,000 compounds, 20% with a hit somewhere; the sample as a whole holds those more often.
Each entry below lists one item and its recorded growth value.
Unit % implied. Number only.

Worked set:
Entry `COc1cccc(/C=C2\COc3ccc(O)cc3C2=O)c1` : reported growth = ? 89

Reported growth for `Cn1ncc2ccc(-c3nc(-c4ccccc4)[nH]c3-c3n[nH]c(=O)n3C3CC3)cc21` : what is it? 106

Look up growth: `COc1ccc(-c2cc(-c3cc(OC)c(OC)c(OC)c3)c(C#N)c(=O)n2CCCCCC(=O)NO)cc1` 92.5

Item under review: `CCOC(=O)c1c(C)nc2c(c1N)CC(=O)N2Cc1cc(OC)c(OC)c(OC)c1` . Reported growth? 80.6

Dear colleague, I am looking for the recorded growth of the following compound: `C(/C=C/c1ccccc1)=Nc1ccc(CCc2ccc(N=C/C=C/c3ccccc3)cc2)cc1` 25.6

New cases:
Could you share which growth value was measured for `Cc1ncc(C(=O)Nc2ccc(CN3CCN(C)CC3)c(C(F)(F)F)c2)cc1C#Cc1cnc(N)c2ccncc12` ? -50.5

I am curious: what growth value has been reported for `O=C(CCCCCCN1CC(=O)N2[C@@H](C3CCCCC3)c3[nH]c4ccccc4c3C[C@H]2C1=O)NO` ? 80

Looking for the measured growth of CCOC(=O)c1c(C)nn(CC(O)c2ccccc2)c1NC(=O)Nc1cccc(F)c1 (centres undefined) , can you help? 94.3

Item `O=C(Nc1ccc(F)cc1)Nc1ccccc1CNc1nc(Nc2ccc(OCCN3CCCC3)cc2)ncc1Cl` has what recorded growth? 47
